Give log10 of IC50 for every item shown.
# target.system: human Bradykinin B1 receptor (Homo sapiens, UniProt P46663)
# Construct: host or cells: CHO-K1
# Sequence (P46663 whole entry): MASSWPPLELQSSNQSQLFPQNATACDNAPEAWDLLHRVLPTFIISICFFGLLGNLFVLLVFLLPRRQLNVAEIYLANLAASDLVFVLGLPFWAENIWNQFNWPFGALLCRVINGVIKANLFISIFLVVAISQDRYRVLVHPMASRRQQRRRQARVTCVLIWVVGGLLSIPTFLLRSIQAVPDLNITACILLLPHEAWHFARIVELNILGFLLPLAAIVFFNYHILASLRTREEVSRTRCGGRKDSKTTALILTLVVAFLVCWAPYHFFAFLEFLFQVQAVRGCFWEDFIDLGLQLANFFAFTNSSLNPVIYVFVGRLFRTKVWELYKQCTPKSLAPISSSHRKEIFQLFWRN
# assay.comment: Calcium flux Assay (FLIPR) with recombinant CHO-K1 cells expressing human Bradykinin B1 receptor, in presence (hB1 IC50) or absence (hB1 free IC50) of 0.1% BSA
# Assay type: cell-based
# assay.setup: in absence of 0.1% BSA, read-out: hB1 free IC50
# Procedure: The potency to inhibit the Bradykinin B1 receptor was determined for the compounds of this invention in a cell-based fluorescent calcium-mobilisation assay. […] The change of the intracellular Ca^2+ concentration is monitored with a fluorescent plate reader FLIPR TETRA® (Molecular Devices). […] Peak fluorescence was used to determine the response to agonist obtained at each concentration of compound examples by the following equation: […]
Record value = log10 of IC50 given in nM.

structure: Cc1ccc(C2(C(=O)Nc3ccc(-c4ccc(C(F)F)nc4)c(-c4nnn[nH]4)c3)CC2)c(F)c1
log10 of IC50: 0.93
//
structure: O=C(Nc1ccc(-c2ccnc(C(F)(F)F)c2)c(-c2nnn[nH]2)c1)C1(c2cc(F)ccc2F)CC1
log10 of IC50: 2.59
//
structure: O=C(Nc1ccc(-c2ccc(C(F)(F)F)nc2)c(-c2nnn[nH]2)c1)C1(c2cccc(Cl)c2)CC1
log10 of IC50: 1.77
//
structure: CCOc1ccc(-c2ccc(NC(=O)C3(c4ccc(Cl)cc4)CC3)cc2-c2nnn[nH]2)cn1
log10 of IC50: 0.75
//
structure: O=C(Nc1ccc(-n2cc(C(F)(F)F)cn2)c(-c2nnn[nH]2)c1)C1(c2ccc(C(F)(F)F)cc2F)CC1
log10 of IC50: 1.45

Give me log10 of IC50 for each of these compounds, listed below.
1. O=C(Nc1ccc(-c2ccc(C(F)F)nc2)c(-c2nnn[nH]2)c1)C1(c2ccc(F)cc2)CC1
2. Cc1nc(C(F)(F)F)cn1-c1ccc(NC(=O)C2(c3ccc(C(F)(F)F)cc3F)CC2)cc1-c1nnn[nH]1

result:
1.96
2.94

Reference for the values: patent US20210317092A1
